Reference source for all entries: ChEMBL document CHEMBL5512689

# Assay summary: Ratio of drug concentration in brain to plasma in rat at 10 mg/kg, po
# Assay type: ADME, organism-based
# Details: read-out: BPR
Quantity name: Kp
Please reply with the number alone, leaving off any unit.

Request: Provide measured Kp value, entry: Cc1cn(-c2ccc3n(c2=O)CCN([C@@H](C)[C@@H]2CC[C@H](c4cc(F)c(Cl)cc4C(F)(F)F)O2)C3=O)cn1
Result: 1.5

---

# Assay summary: Drug penetration in Non human primate assessed as unbound brain-to-plasma concentration ratio
# Type: ADME, cell-free
# Details: primates, read-out: K(p,uu,brain)
Quantity name: Kp uu

Request: Provide measured Kp uu value, entry: Cc1cn(-c2ccc3n(c2=O)CCN([C@@H](C)[C@@H]2CC[C@H](c4ccc(Cl)cc4C(F)(F)F)O2)C3=O)cn1
Result: 1
